B1: PhoQ; a variant is named by its letters at X, in order, P23837 (parent)
chain: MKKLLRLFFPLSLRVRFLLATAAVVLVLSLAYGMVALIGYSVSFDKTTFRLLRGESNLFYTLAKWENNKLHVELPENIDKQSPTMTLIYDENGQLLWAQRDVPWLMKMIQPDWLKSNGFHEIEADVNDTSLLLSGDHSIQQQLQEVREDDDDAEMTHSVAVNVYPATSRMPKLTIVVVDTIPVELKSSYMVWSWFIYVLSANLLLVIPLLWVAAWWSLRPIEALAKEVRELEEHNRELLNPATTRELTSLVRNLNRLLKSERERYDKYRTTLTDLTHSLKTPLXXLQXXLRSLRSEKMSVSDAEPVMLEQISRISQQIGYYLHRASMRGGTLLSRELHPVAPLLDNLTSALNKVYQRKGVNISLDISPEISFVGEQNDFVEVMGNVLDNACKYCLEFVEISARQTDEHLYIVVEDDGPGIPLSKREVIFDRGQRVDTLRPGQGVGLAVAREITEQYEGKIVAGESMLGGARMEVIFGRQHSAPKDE

- Variants of: B1
- PROCEDURE TEXT: enrichment ratio after two sorts for PhoP signalling (ratio (wild type AVST 3.29)); higher = more functional
- RECORDED CONDITIONS: with PhoP (E. coli)
The full ranking holds about 140,000 sequences; the median of “enrichment ratio after two sorts for PhoP signalling” is about 0, and the highest 2% start at about 11. The entries come from a sample that favours the highest values as a whole.
Assign Condition met to entries whose enrichment ratio meets or exceeds 10; assign Condition not met to the rest.

{"MUTATION DESCRIPTOR": "VDPQ", "ASSIGNED CLASS": "Condition not met"}
{"MUTATION DESCRIPTOR": "QSYL", "ASSIGNED CLASS": "Condition met"}
{"MUTATION DESCRIPTOR": "HSYE", "ASSIGNED CLASS": "Condition not met"}
{"MUTATION DESCRIPTOR": "PMKC", "ASSIGNED CLASS": "Condition not met"}
{"MUTATION DESCRIPTOR": "KRQM", "ASSIGNED CLASS": "Condition not met"}
{"MUTATION DESCRIPTOR": "QTDH", "ASSIGNED CLASS": "Condition met"}
{"MUTATION DESCRIPTOR": "AGLC", "ASSIGNED CLASS": "Condition met"}
{"MUTATION DESCRIPTOR": "QGDH", "ASSIGNED CLASS": "Condition not met"}
{"MUTATION DESCRIPTOR": "QTPM", "ASSIGNED CLASS": "Condition not met"}
{"MUTATION DESCRIPTOR": "VTQY", "ASSIGNED CLASS": "Condition not met"}
{"MUTATION DESCRIPTOR": "QTNS", "ASSIGNED CLASS": "Condition not met"}
{"MUTATION DESCRIPTOR": "HFFS", "ASSIGNED CLASS": "Condition not met"}
{"MUTATION DESCRIPTOR": "DTEC", "ASSIGNED CLASS": "Condition not met"}
{"MUTATION DESCRIPTOR": "GGLC", "ASSIGNED CLASS": "Condition not met"}
{"MUTATION DESCRIPTOR": "QTNY", "ASSIGNED CLASS": "Condition met"}
{"MUTATION DESCRIPTOR": "AALC", "ASSIGNED CLASS": "Condition met"}
{"MUTATION DESCRIPTOR": "QLYR", "ASSIGNED CLASS": "Condition not met"}
{"MUTATION DESCRIPTOR": "VYLC", "ASSIGNED CLASS": "Condition not met"}
{"MUTATION DESCRIPTOR": "KFQS", "ASSIGNED CLASS": "Condition not met"}
{"MUTATION DESCRIPTOR": "YALC", "ASSIGNED CLASS": "Condition not met"}
{"MUTATION DESCRIPTOR": "DCGT", "ASSIGNED CLASS": "Condition not met"}
{"MUTATION DESCRIPTOR": "HAGM", "ASSIGNED CLASS": "Condition not met"}

Where these numbers come from: a collection of fitness landscapes (doi:10.1126/science.1257360)
